# Tested on: BL2-NFkB-Luc
# assay remarks: CD40L-induced NF-kB luciferase activity, plate-corrected, relative to DMSO (0) and IKK inhibitor VII (-100) controls (% normalized activity); higher = more NF-kB reporter activity (less inhibition)
# cond: 9.4 µM; stimulus: tCD40L 64 ng/ml; 4.5 h
Whole data set: some 1,900 compounds, median “CD40L-induced NF-kB luciferase activity, plate-corrected, relative to DMSO (0) and IKK inhibitor VII (-100) controls” near 0.032, cut for the lowest 2% near -26. The full list was thinned out, with the lowest values kept by preference.
Assign T to entries whose CD40L-induced NF-kB luciferase activity meets or exceeds -1; assign F to the rest.

# cpd smiles, assigned label
rows = [
    ("CC(=O)O[C@H]1CC[C@H]2[C@@H]3CCc4cc(O)ccc4[C@H]3CC[C@]12C", "F"),
    ("CCOc1ccccc1C(=O)NCCC(=O)O", "F"),
    ("O=C(Nc1ccc(C(=O)NC2CCCCC2)cc1)c1cccnc1", "T"),
    ("Nc1c(C(=O)c2ccccc2)oc2ccccc12", "T"),
    ("CC(=O)OCC(=O)[C@@]1(O)CC[C@H]2[C@@H]3CCC4=CC(=O)CC[C@]4(C)[C@H]3[C@@H](O)C[C@@]21C", "F"),
    ("C[C@]12CCC(=O)C=C1[C@H](O)C[C@@H]1[C@@H]2[C@@H](O)C[C@@]2(C)[C@H]1CC[C@]2(O)C(=O)CO", "F"),
]
